B1: FOXJ1 (parent)
chain: SAIYKWITDNFCYFRHADPTWQNS

Variants of: B1
ASSAY_DETAILS: protein stability index of a GFP-peptide fusion (GPS, HEK-293T) (PSI 1-6); higher = more stable;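 further: lentivirally expressed fusions sorted by FACS into six bins by GFP to DsRed ratio, PSI derived from sequencing read proportions per bin multiplied by bin number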
TEST_SETTINGS: c terminus: a fixed tail appended
MEASURED_PROPERTY: protein stability index

INSERT INTO assay_data (residue_sequence, experimental_result) VALUES
  ('SAIYKWITDNFCFFRHADPTWQNS [Y13F]', 2.47),
  ('SAIYKWITDNKCYFRHADPTWQNS [F11K]', 2.08),
  ('SAIYKWITGNFCYFRHADPTWQNS [D9G]', 3.51),
  ('SAIYKWITDNFCYFRFADPTWQNS [H16F]', 3.57),
  ('SAIYKWITDNFCYFRHADPLWQNS [T20L]', 2.08),
  ('SAIYKGITDNFCYFRHADPTWQNS [W6G]', 1.67),
  ('SAIYKWITDNFCYFSHADPTWQNS [R15S]', 2.76),
  ('SAIYYWITDNFCYFRHADPTWQNS [K5Y]', 3.64),
  ('SAIYKWIIDNFCYFRHADPTWQNS [T8I]', 1.8),
  ('SAIYKWITDNFEYFRHADPTWQNS [C12E]', 1.95),
  ('TAIYKWITDNFCYFRHADPTWQNS [S1T]', 3.01);
